- MEASUREMENT NOTES: in vitro
- TEST PARAMETERS: human, Caco-2, pH 7.4
MEASUREMENT LABEL: Papp A→B at 120 min, 500 μM

| MOLECULE | MEASUREMENT LABEL | ASSAY RESULT |
| --- | --- | --- |
| O=C(O)c1cc(/N=N/c2ccc(S(=O)(=O)Nc3ccccn3)cc2)ccc1O [sulfasalazine, reference compound] | Papp A→B at 120 min, 500 μM | ≤ 0.1 ×10⁻⁶ cm/s |

----------
Listed next: entries and their corresponding inhibition at 50 μM.
- TARGET OF ASSAY: BCRP (Homo sapiens)
- Sequence (Q9UNQ0 whole entry): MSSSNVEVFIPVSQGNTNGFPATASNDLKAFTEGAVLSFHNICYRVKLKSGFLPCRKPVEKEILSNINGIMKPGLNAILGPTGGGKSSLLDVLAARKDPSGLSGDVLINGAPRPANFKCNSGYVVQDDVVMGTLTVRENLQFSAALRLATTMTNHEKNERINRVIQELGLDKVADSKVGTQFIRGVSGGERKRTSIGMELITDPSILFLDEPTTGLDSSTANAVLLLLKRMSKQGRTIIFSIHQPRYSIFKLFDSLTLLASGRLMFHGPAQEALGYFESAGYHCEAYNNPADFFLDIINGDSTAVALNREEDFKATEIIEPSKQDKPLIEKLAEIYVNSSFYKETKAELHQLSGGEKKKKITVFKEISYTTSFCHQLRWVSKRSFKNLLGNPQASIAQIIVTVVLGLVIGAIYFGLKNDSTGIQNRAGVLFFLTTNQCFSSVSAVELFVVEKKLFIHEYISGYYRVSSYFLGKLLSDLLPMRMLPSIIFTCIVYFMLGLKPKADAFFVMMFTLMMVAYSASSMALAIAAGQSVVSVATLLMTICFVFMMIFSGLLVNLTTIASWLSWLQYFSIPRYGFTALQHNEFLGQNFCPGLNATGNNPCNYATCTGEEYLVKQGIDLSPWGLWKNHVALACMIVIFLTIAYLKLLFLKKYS
- MEASUREMENT NOTES: Vesicular transport assay, BCRP (Lucifer yellow substrate)
- Type: biochemical
- Design: made in house; host or cells: Spodoptera frugiperda Sf9 cells, crude membrane vesicles
- TEST PARAMETERS: Sf9-derived crude membrane vesicles expressing BCRP, pH 7, probe Lucifer yellow 50 μM, food additive 50 μM, n = 1, read-out: inhibition of BCRP substrate accumulation

| COMPOUND | TARGET OF ASSAY | inhibition at 50 μM |
| --- | --- | --- |
| CC1=C(/C=C/C(C)=C/C=C/C(C)=C/C=C/C=C(C)/C=C/C=C(C)/C=C/C2=C(C)CCCC2(C)C)C(C)(C)CCC1 [beta-carotene] | BCRP (Homo sapiens) | ≥ 50% |
| CCCCCCCCOC(=O)c1cc(O)c(O)c(O)c1 [octyl gallate] | BCRP (Homo sapiens) | ≥ 50% |
| CCCCCCCCCCCCOC(=O)c1cc(O)c(O)c(O)c1 [dodecyl gallate] | BCRP (Homo sapiens) | ≥ 50% |

----------
- TARGET OF ASSAY: OATP2B1 (Homo sapiens, UniProt O94956)
- Construct: expressed in transfected cells; host or cells: HEK293 cells (ATCC) transduced with recombinant OATP2B1 baculovirus
- Sequence (O94956 whole entry): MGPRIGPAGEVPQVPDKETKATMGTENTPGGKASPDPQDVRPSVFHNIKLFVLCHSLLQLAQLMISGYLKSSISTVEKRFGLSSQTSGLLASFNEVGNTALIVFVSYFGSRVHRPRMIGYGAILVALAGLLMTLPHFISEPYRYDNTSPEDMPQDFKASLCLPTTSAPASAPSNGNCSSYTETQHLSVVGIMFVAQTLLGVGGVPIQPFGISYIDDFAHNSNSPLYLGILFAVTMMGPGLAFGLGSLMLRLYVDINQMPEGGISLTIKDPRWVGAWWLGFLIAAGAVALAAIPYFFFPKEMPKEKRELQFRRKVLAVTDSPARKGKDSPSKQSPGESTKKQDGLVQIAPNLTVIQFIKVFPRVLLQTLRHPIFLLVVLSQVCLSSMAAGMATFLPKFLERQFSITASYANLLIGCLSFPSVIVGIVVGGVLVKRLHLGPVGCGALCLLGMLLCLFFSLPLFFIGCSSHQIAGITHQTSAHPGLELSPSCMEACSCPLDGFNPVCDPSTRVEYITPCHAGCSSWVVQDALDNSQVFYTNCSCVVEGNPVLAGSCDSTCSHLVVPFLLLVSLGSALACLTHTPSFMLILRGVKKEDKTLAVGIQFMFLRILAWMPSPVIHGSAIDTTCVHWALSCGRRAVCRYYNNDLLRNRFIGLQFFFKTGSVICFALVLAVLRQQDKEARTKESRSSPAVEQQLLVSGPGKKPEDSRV
- MEASUREMENT NOTES: HEK293 uptake assay, OATP2B1 (5-carboxyfluorescein substrate)
- Format: cell-based
- TEST PARAMETERS: 5-carboxyfluorescein 2 μM; HEK293 cells; pH 6; n = 3; read-out: IC50 (95% CI), OATP2B1

| COMPOUND | IC50 [µM] |
| --- | --- |
| CC1=C(/C=C/C(C)=C/C=C/C(C)=C/C=C/C=C(C)/C=C/C=C(C)/C=C/C2=C(C)CCCC2(C)C)C(C)(C)CCC1 [beta-carotene] | 27.5 |

----------
- MEASUREMENT NOTES: in vitro
- TEST PARAMETERS: human, Caco-2, pH 7.4

| MOLECULE | Papp B→A at 120 min, 500 μM |
| --- | --- |
| O=C(O)c1cc(/N=N/c2ccc(S(=O)(=O)Nc3ccccn3)cc2)ccc1O [sulfasalazine, reference compound] | ~6.5 ×10⁻⁶ cm/s |

----------
- TARGET OF ASSAY: BCRP (Homo sapiens)
- MEASUREMENT NOTES: Vesicular transport assay, BCRP (Lucifer yellow substrate)
- Assay type: biochemical
- Parameters: made in house; host or cells: Spodoptera frugiperda Sf9 cells, crude membrane vesicles
- TEST PARAMETERS: Lucifer yellow 50 μM; membrane vesicles; n = 3; read-out: IC50 (95% CI), BCRP

| MOLECULE | TARGET OF ASSAY | IC50, µM |
| --- | --- | --- |
| CCCCCCCCCCCCOC(=O)c1cc(O)c(O)c(O)c1 [dodecyl gallate] | BCRP (Homo sapiens) | 22.5 |
| CC1=C(/C=C/C(C)=C/C=C/C(C)=C/C=C/C=C(C)/C=C/C=C(C)/C=C/C2=C(C)CCCC2(C)C)C(C)(C)CCC1 | BCRP (Homo sapiens) | 12.1 |

These entries and their values trace back to paper PMC12406256.
